Reference for the values: ChEMBL document CHEMBL5634145

Assay Overview: Half life in ICR mouse at 5 mg/kg, iv by LC-MS/MS analysis
Type: ADME, organism-based
Experimental Setup: in vivo
Quantity: half-life (h)
Form entry: value (h) — number only.

Suppose we examine the molecule Cc1ncccc1C(=O)Nc1nc2cc(C(N)=O)ccc2n1CCCCNC(=O)OC(C)(C)C ; what half-life value has been reported?
11.2

---

Target: Voltage-gated inwardly rectifying potassium channel KCNH2 (Homo sapiens)
Sequence (Q12809 whole entry): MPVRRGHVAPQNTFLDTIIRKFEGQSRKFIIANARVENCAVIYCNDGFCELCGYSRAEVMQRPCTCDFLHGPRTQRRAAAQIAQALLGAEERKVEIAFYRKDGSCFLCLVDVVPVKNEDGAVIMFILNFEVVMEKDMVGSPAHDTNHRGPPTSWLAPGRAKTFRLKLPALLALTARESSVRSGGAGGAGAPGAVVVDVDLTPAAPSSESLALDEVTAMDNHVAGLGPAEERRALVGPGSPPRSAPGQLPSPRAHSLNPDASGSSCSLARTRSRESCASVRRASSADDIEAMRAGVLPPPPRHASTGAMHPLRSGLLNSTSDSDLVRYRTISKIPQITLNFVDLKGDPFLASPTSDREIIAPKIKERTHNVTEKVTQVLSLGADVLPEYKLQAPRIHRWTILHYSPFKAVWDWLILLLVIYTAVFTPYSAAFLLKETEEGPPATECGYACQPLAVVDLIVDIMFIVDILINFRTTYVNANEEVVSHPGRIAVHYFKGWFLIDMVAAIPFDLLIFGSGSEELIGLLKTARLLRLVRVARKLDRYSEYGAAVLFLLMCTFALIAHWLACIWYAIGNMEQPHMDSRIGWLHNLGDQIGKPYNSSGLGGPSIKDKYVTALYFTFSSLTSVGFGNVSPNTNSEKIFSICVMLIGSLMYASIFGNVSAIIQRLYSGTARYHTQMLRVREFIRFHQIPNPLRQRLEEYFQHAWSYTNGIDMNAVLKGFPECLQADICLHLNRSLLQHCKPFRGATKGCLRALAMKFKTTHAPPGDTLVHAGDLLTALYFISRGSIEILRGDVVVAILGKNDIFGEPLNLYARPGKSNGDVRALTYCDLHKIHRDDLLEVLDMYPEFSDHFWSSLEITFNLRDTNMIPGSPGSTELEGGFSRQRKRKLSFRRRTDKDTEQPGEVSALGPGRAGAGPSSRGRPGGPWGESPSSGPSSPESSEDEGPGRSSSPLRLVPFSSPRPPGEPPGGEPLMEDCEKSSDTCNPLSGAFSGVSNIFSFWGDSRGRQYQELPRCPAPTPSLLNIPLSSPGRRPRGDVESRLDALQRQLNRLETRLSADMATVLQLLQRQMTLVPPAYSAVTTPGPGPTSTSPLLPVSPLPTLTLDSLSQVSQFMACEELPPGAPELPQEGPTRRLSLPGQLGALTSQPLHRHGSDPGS
Quantity: IC50

Give the reported IC50 for Cc1ncccc1C(=O)Nc1nc2cc(C(N)=O)ccc2n1CCCCNC(=O)OC(C)(C)C (system: Voltage-gated inwardly rectifying potassium channel KCNH2 (Homo sapiens)).
> 100 µM

---

Assay Overview: AUClast in ICR mouse at 5 mg/kg, iv by LC-MS/MS analysis
Type: ADME, organism-based
Experimental Setup: in vivo
Quantity: AUC(0-t) (ng·h/mL)
Form entry: value (ng·h/mL) — number only.

Suppose we examine the molecule Cc1ncccc1C(=O)Nc1nc2cc(C(N)=O)ccc2n1CCCCNC(=O)OC(C)(C)C ; what AUC(0-t) value has been reported?
880

---

Assay Overview: Cytotoxicity against human THP1-Dual KO-STING cells assessed as cell viability incubated for 24 hrs by CellTiter 96 aqueous one solution assay relative to control
Type: toxicity, cell-based
Set-up: concentration or dose not given beside the values
Experimental Setup: read-out: Activity
Here the recorded viability at 24 h is given for each entry.
Returns: string containing the numeric result and its unit.

Field: example entries. Status: answers known.
CC(C)(C)OC(=O)NCCCCn1c(NC(=O)c2cccnc2Cl)nc2cc(C(N)=O)ccc21
100%
Cc1ccc(C(=O)Nc2nc3cc(C(N)=O)ccc3n2CCCCNC(=O)OC(C)(C)C)c(C)n1
93.2%

Suppose we examine the molecule Cc1ncccc1C(=O)Nc1nc2cc(C(N)=O)ccc2n1C ; what viability at 24 h value has been reported?
105%

Then what about the molecule CC(C)(C)OC(=O)NCCCCn1c(NC(=O)c2cccnc2C(F)(F)F)nc2cc(C(N)=O)ccc21 ?
102%

Then what about the molecule Cc1ncccc1C(=O)Nc1nc2cc(C(N)=O)ccc2n1CCCCNC(=O)c1ccccc1 ?
93.8%

---

Target: Stimulator of interferon genes protein (Homo sapiens, UniProt Q86WV6)
Sequence (Q86WV6 whole entry): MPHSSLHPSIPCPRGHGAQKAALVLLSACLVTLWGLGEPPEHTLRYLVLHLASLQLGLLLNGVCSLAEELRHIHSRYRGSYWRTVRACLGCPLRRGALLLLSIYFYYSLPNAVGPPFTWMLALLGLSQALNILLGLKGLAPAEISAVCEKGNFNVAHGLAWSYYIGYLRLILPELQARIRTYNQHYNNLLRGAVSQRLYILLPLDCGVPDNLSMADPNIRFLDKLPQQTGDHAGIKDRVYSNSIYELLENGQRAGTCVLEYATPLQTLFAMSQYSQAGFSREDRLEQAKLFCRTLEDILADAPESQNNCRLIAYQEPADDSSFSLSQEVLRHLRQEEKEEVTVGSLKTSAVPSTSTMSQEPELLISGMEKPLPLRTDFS
Assay Overview: Agonist activity at STING in wild type human THP1-Dual cells assessed as increase in IRF-mediated immune response incubated for 24 hrs by QUANTI-Luc assay
Lab note: anything with EC50 below 20 µM is marked YES; values at 20 µM or higher are marked NO.

CC(C)(C)OC(=O)NCCCCn1c(NC(=O)c2cccnc2)nc2cc(C(N)=O)ccc21
NO
CCn1nc(C)cc1C(=O)Nc1nc2cc(C(N)=O)ccc2n1CCCCn1c(NC(=O)c2cc(C)nn2CC)nc2cc(C(N)=O)ccc21
YES
Cc1nc(C(F)(F)F)ccc1C(=O)Nc1nc2cc(C(N)=O)ccc2n1CCCCNC(=O)OC(C)(C)C
NO

Turning now to a further record.
Lab note: EC50 threshold 20 µM. Does this compound come in strictly under it? Cc1ncccc1C(=O)Nc1nc2cc(C(N)=O)ccc2n1CCCCn1c(NC(=O)c2cccnc2C)nc2cc(C(N)=O)ccc21
YES

---

Assay Overview: AUClast in ICR mouse at 20 mg/kg, po administered via oral gavage by LC-MS/MS analysis
Format: ADME, organism-based
Experimental Setup: in vivo
Quantity: AUC(0-t)
Returns: string containing the numeric result and its unit.

Suppose we examine the molecule Cc1ncccc1C(=O)Nc1nc2cc(C(N)=O)ccc2n1CCCCNC(=O)OC(C)(C)C ; what AUC(0-t) value has been reported?
180 ng·h/mL
